tested on: Aurora A (AurA); assay: Time-resolved FRET lifetime assay, AurA biosensor labeled at L225C/S284C, 384-well plates; details: 5 μM inhibitor, samples lacking TPX2
QUANTITY NAME: DFG-In/DFG-Out state of AurA on inhibitor binding

Before answering, review these 4 worked examples.
CO[C@@H](C(=O)N1Cc2n[nH]c(NC(=O)c3ccc(N4CCN(C)CC4)cc3)c2C1)c1ccccc1 [Danusertib] | DFG-Out state
Cc1cc(Nc2cc(N3CCN(C)CC3)nc(Sc3ccc(NC(=O)C4CC4)cc3)n2)n[nH]1 [VX-680] | DFG-Out state
COc1cc(N2CCC(N3CCN(C)CC3)CC2)ccc1Nc1ncc(Cl)c(Nc2ccccc2S(=O)(=O)C(C)C)n1 [TAE-684] | DFG-In state
O=C(O)c1ccc(Nc2ncc3c(n2)-c2ccc(Cl)cc2C(c2c(F)cccc2F)=NC3)cc1 [MLN-8054] | DFG-Out state

For the next question, use this compound.
Data request: Which measured DFG-In/DFG-Out state of AurA on inhibitor binding value corresponds to CCc1cccc(CC)c1NC(=O)N1Cc2n[nH]c(NC(=O)c3ccc(N4CCN(C)CC4)cc3)c2C1 [PHA-680632] ?
Data returned: DFG-In state
